ASSAY PROTOCOL: Clearance in fasted Sprague-Dawley rat at 0.4 mg/kg, iv by LC-MS/MS analysis
Format: ADME, organism-based
CONDITIONS USED: in vivo
Non-standard residues stand in square brackets, D forms with d. Residues, ends and D or L forms follow the SMILES beside them. *: point of attachment. Benzoyl(4-OPh(4-CONH2)) = NC(=O)c1ccc(Oc2ccc(C(=O)*)cc2)cc1; Benzenesulfonyl(4-OPh) = O=S(=O)(c1ccc(Oc2ccccc2)cc1)*; NMeI = CC[C@H](C)[C@H](NC)C(=O)O; NMeE = CN[C@@H](CCC(=O)O)C(=O)O; β3hP = O=C(O)C[C@@H]1CCCN1; Dab = NCC[C@H](N)C(=O)O; Ava = NCCCCC(=O)O; GABA = NCCCC(=O)O
Catalogue of clearance readings, one per entry.
Return type: number; implicit unit mL/min/kg.

Examples from the recorded data:
CC(C)C[C@H](NC(=O)[C@H](CCN)NC(=O)[C@H](CC(=O)O)NC(=O)[C@H](CC(N)=O)NC(=O)CCCNS(=O)(=O)c1ccc(Oc2ccccc2)cc1)C(=O)N(C)[C@@H](CCC(=O)O)C(=O)N1CCC[C@H]1CC(N)=O ({Benzenesulfonyl(4-OPh)-GABA}-ND[Dab]L[NMeE][β3hP]-NH2) ... 20.2
CC[C@H](C)[C@@H](C(=O)N1CCC[C@H]1CC(N)=O)N(C)C(=O)[C@H](CC(C)C)NC(=O)[C@H](C)NC(=O)[C@H](CC(=O)O)NC(=O)[C@H](CC(N)=O)NC(=O)CCCNS(=O)(=O)c1ccc(Oc2ccccc2)cc1 ({Benzenesulfonyl(4-OPh)-GABA}-NDAL[NMeI][β3hP]-NH2) ... 74.5

Here is another molecule to look at.
## Input Answer with the recorded clearance for the molecule listed here: CC(C)C[C@H](NC(=O)[C@H](CCN)NC(=O)[C@H](CC(=O)O)NC(=O)[C@H](CC(N)=O)NC(=O)CCCCNC(=O)c1ccc(Oc2ccc(C(N)=O)cc2)cc1)C(=O)N(C)[C@@H](CCC(=O)O)C(=O)N1CCC[C@H]1CC(N)=O ({Benzoyl(4-OPh(4-CONH2))-Ava}-ND[Dab]L[NMeE][β3hP]-NH2)
## Output 12

###

Entries below carry reported IC50 on 72 kDa type IV collagenase (Homo sapiens, UniProt P08253).
Sequence (P08253 whole entry): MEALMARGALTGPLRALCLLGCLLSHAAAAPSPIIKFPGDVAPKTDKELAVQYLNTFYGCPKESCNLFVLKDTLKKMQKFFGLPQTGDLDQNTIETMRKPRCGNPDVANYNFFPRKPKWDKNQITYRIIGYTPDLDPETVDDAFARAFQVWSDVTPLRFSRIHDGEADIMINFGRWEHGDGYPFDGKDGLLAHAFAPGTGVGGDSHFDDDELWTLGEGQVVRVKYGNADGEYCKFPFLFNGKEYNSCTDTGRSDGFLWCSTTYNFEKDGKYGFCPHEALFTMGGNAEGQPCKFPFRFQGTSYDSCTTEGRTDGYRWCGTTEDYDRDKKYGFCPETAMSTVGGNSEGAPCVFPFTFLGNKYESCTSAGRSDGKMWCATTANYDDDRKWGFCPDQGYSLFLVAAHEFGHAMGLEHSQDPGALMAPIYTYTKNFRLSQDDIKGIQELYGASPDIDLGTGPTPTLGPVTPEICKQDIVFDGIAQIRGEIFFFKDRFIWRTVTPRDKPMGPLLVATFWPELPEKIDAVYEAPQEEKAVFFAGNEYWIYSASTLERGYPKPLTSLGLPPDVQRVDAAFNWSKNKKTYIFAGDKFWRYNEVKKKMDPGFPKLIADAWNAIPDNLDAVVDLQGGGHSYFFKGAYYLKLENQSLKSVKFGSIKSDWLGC
Non-standard residues stand in square brackets, D forms with d. Residues, ends and D or L forms follow the SMILES beside them. *: point of attachment. Benzoyl(4-OPh(4-CONH2)) = NC(=O)c1ccc(Oc2ccc(C(=O)*)cc2)cc1; Benzenesulfonyl(4-OPh) = O=S(=O)(c1ccc(Oc2ccccc2)cc1)*; NMeE = CN[C@@H](CCC(=O)O)C(=O)O; β3hP = O=C(O)C[C@@H]1CCCN1; Dab = NCC[C@H](N)C(=O)O; Ahx = NCCCCCC(=O)O; βAla = NCCC(=O)O
Return type: number; implicit unit nM.

CSCC[C@H](NC(=O)[C@H](CC(C)C)NC(=O)[C@H](C)NC(=O)[C@H](CC(=O)O)NC(=O)[C@H](CC(N)=O)NC(=O)CCNS(=O)(=O)c1ccc(Oc2ccccc2)cc1)C(=O)N1CCC[C@H]1C(N)=O ({Benzenesulfonyl(4-OPh)-βAla}-NDALMP-NH2) ... 0.49

Here is another molecule to look at.
## Input Provide IC50, recorded with 72 kDa type IV collagenase (Homo sapiens, UniProt P08253), of CC(C)C[C@H](NC(=O)[C@H](CCN)NC(=O)[C@H](CC(=O)O)NC(=O)[C@H](CC(N)=O)NC(=O)CCCCCNC(=O)c1ccc(Oc2ccc(C(N)=O)cc2)cc1)C(=O)N(C)[C@@H](CCC(=O)O)C(=O)N1CCC[C@H]1CC(N)=O ({Benzoyl(4-OPh(4-CONH2))-Ahx}-ND[Dab]L[NMeE][β3hP]-NH2)
## Output 0.13

These entries and their values trace back to ChEMBL document CHEMBL5154944.
